Assay: NCI Yeast Anticancer Drug Screen. Data for the bub3 strain (AID 167)
Conditions: S. cerevisiae bub3 mutant strain, at 50.0 µM, active compounds read high
This is part of a sample that, as a whole, favours compounds with a hit. Of some 79,000 tested, about 15% had one in any assay.
Property Label: growth inhibition (%)
Respond with the bare value in %.

# example entries with known answers
molecule=COc1ccc(C(=O)Cc2ccc(Cl)cc2)cc1OC property_label="growth inhibition" measurement_units=% assay_result=3.55
molecule=CCOC(=O)c1cc(Cc2ccccc2)c(=O)n(C)c1-c1ccccc1 property_label="growth inhibition" measurement_units=% assay_result=85.3
molecule="COC(=O)NC1CCCCCCCCCCC1I (stereo not given)" property_label="growth inhibition" measurement_units=% assay_result=3.35
molecule="CC1/C=C/C=C/CC/C=C/C=C/C=C/C=C/C(OC2OC(C)C(O)C(N)C2O)CC2OC(CC(O)C(O)CCC(O)CC(O)CC(O)CC(=O)OC(C)C(C)C1O)CC(O)C2C(=O)O (stereo not given)" property_label="growth inhibition" measurement_units=% assay_result=99.2
molecule=O=C(Sc1c(-c2ccccc2)c(=O)n(-c2ccccc2)c(=S)n1-c1ccccc1)c1cccs1 property_label="growth inhibition" measurement_units=% assay_result=84

Query: Consider the molecule shown here: `Cc1nc2c(cnn2-c2ccccc2)c(=O)o1` What is its recorded growth inhibition?
Response: -0.85

Query: Consider the molecule shown here: `Cc1ccc2c(c1C)-c1c(ccc(C)c1C)C(=O)C2=O` What is its recorded growth inhibition?
Response: 99.5

Query: Consider the molecule shown here: `CCCCN1CCN(c2ccc([N+](=O)[O-])c3no[n+]([O-])c23)CC1` What is its recorded growth inhibition?
Response: 91.2

Query: Consider the molecule shown here: CN(C)CC(CN1CCCC1)C(=O)c1ccccc1 (stereo not given) What is its recorded growth inhibition?
Response: 65.5

Query: Consider the molecule shown here: OC(/C=C/c1ccccc1)(c1ccccc1)c1nc2ccccc2s1 (stereo not given) What is its recorded growth inhibition?
Response: -12.8
